Experimental target: 229E Mpro (Human coronavirus 229E, UniProt P0C6X1)
Sequence (P0C6X1 2966-3267): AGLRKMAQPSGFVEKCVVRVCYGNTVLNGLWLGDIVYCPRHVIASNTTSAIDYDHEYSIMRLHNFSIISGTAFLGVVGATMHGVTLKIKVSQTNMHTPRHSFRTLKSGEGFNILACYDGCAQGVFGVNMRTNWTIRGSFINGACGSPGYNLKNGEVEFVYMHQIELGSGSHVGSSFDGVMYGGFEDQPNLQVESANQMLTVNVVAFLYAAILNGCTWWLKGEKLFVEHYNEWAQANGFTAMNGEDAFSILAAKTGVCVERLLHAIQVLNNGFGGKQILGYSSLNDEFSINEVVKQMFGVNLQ
Experiment summary: 229E Mpro enzymatic assay (standard methods, SARS-CoV2 Mpro assay given as exemplary)
Type: biochemical, human coronavirus (HCov) 229E
Stated conditions: 229E Mpro EC50
For each record, write down the corresponding EC50.

Past entries and their recorded results:
CO[C@@H]1C[C@H](C(=O)N(c2ccc(S(F)(F)(F)(F)F)cc2)C(C(=O)NC2CCC(F)(F)CC2)c2nncn2C(C)C)N(C#N)C1 (stereo partly shown) ... > 30 µM
CC(C)(C)OC(=O)NC1CCN(C(=O)C(c2cccnc2)N(C(=O)[C@H]2CCCN2C#N)c2ccc(C(C)(C)C)cc2)CC1 (stereo partly shown) [Compound 966b] ... 2 to 10 µM
CO[C@@H]1C[C@H](C(=O)N(c2ccc(S(F)(F)(F)(F)F)cc2)C(C(=O)NC2C[C@@H](C)O[C@@H](C)C2)c2cccnc2)N(C#N)C1 (single isomer, unassigned) ... < 2 µM
CO[C@@H]1C[C@H](C(=O)N(c2ccc(S(F)(F)(F)(F)F)cc2)C(C(=O)Nc2ccc3c(c2)OCCO3)c2cccnc2)N(C#N)C1 (single isomer, unassigned) [1170 Isomer 2] ... < 2 µM
CO[C@@H]1C[C@H](C(=O)N(c2ccc(S(F)(F)(F)(F)F)cc2)C(C(=O)N2CCN(C)C(=O)C2)c2cccnc2)N(C#N)C1 (stereo partly shown) ... < 2 µM

The following compounds each have a reported value; give each one's EC50.
1. C[C@H](NC(=O)C(c1cccnc1)N(C(=O)c1ccco1)c1ccc(-c2ccccc2)cc1)c1ccccc1 (single isomer, unassigned) [1353 Isomer 1]
2. CC(C)(C)c1ccc(N(C(=O)c2cnc[nH]2)C(C(=O)NC2CCCCC2)c2cncnc2C#N)cc1 (stereo not shown)

-- reply
< 2 µM
2 to 10 µM

Return reported EC50 values for all items listed beneath this line.
1. COc1ccc(NC(=O)C(c2cccnc2)N(C(=O)[C@H]2CCCN2C#N)c2ccc(C(C)(C)C)cc2)cn1 (single isomer, unassigned) [Compound 407 Isomer 2]
2. N#CN1C[C@@H](OCc2ccccc2)C[C@@H]1C(=O)N(c1ccc(S(F)(F)(F)(F)F)cc1)C(C(=O)NC1CCC(F)(F)CC1)c1cncc(F)c1 (single isomer, unassigned) [1280 Isomer 2]
3. CC(C)(C)c1ccc(N(C(=O)[C@H]2Cc3ccccc3CN2C#N)C(C(=O)NC2CCCCC2)c2cccnc2)cc1 (single isomer, unassigned) [Compound 374 Isomer 2]
4. N#CN1C[C@@H]2CC[C@@H]2[C@@H]1C(=O)N(c1ccc(S(F)(F)(F)(F)F)cc1)C(C(=O)NC1CCC(F)(F)CC1)c1cncc(F)c1 (single isomer, unassigned) [1097 Isomer 2]

-- reply
["10 to 30 µM", "2 to 10 µM", "< 2 µM", "2 to 10 µM"]

Could you report EC50 for every entry in the following list?
1. CC1(C)CCNc2cc(N(C(=O)[C@H]3C[C@@](C)(O)CN3C#N)C(C(=O)NC3CCC(F)(F)CC3)c3cncc(F)c3)ccc21 (single isomer, unassigned) [Compound 1127 Isomer 1]
2. CO[C@@H]1C[C@H](C(=O)N(c2ccc(S(F)(F)(F)(F)F)cc2)C(C(=O)NC2CCOC(C)(C)C2)c2cccnc2)N(C#N)C1 (single isomer, unassigned) [1165 Isomer 1]

-- reply
["< 2 µM", "< 2 µM"]
